Tested on: 786-0
Experiment: NCI tumour cell line growth inhibition, 48 h
The source made the active and inactive calls. Rule as the data show it: active = GI50 up to about 1.1 µM and inactive = higher.
Measure name: GI50

# annotated cases, reported GI50 shown
> print(dat)
                                   compound  measure.name          test.result
1  C/C(=C\C(C[C@](C)(O)C(O)CCC#C[Si](C)(C)C)S(=O)(=O)c1ccccc1)CC/C=C/CO[Si](C)(C)C(C)(C)C (stereo partly drawn)          GI50     17 µM (inactive)
2  Cc1ccc(S(=O)(=O)NC(=O)NC(C(=O)O)C(C)C)cc1 (stereo not drawn)          GI50  > 100 µM (inactive)
3          O=C(/C=C/c1cccc2ccccc12)c1ccccc1          GI50   8.83 µM (inactive)
4      COc1cc2[nH]c(=O)[nH]c2c2c(C)c[nH]c12          GI50  > 100 µM (inactive)
5  CC(=O)CN/C(C)=N/Nc1ccc([N+](=O)[O-])cc1[N+](=O)[O-]          GI50  > 100 µM (inactive)

## Task What measured GI50 goes with COc1ccc(NC(=S)N/N=C\c2ccc(NC(C)=O)cc2)cc1 ?
## Result > 100 µM (inactive)

## Task What measured GI50 goes with N#CC1(Nc2ccc(-c3ccc(NC4(C#N)CCCC4)cc3)cc2)CCCC1 ?
## Result > 100 µM (inactive)

## Task What measured GI50 goes with CCc1cccc(C(C)C)c1NC(=O)C(=O)Nn1c(S)nc2ccccc2c1=O ?
## Result > 100 µM (inactive)

## Task What measured GI50 goes with O=[N+]([O-])c1sc2ccc(Cl)cc2c1Nc1ccc(Cl)cc1 ?
## Result > 100 µM (inactive)

## Task What measured GI50 goes with O=C(/C=C/c1c(O)ccc2ccccc12)c1ccccc1Cl ?
## Result 60.8 µM (inactive)

## Task What measured GI50 goes with O=Cc1cn(CCCCCCCCCCCCn2cc(C=O)c3ccccc32)c2ccccc12 ?
## Result > 100 µM (inactive)

## Task What measured GI50 goes with CN(C)CCNC(=O)c1cc([N+](=O)[O-])cn1C ?
## Result > 100 µM (inactive)

## Task What measured GI50 goes with Cc1cc(C)c(-c2noc(-c3ccc(Cl)cc3)c2C2=NCCCN2)c(C)c1 ?
## Result 7.45 µM (inactive)

###

System: UO-31
Experiment: NCI tumour cell line growth inhibition, 48 h
Activity calls are given as the source filed them. Cut-off read from the data, not from the text of the source: active = GI50 up to about 1.1 µM and inactive = higher.
Tick one outcome: yes (1) (active), no (0) (inactive)

Consider the worked cases shown below.
Molecule	Class assignment
COC(=O)c1c(C)cccc1/C=C1\Cc2cc(C)cc(C)c2C1=O	no (0)
OCC(O)C(O)C(O)c1nn(-c2ccc(F)cc2)c2nc3cc(Cl)c(Cl)cc3nc12 (stereo not drawn)	no (0)
C/C(=N\Nc1nc2cc(Cl)ccc2s1)c1ccccn1	yes (1)
CCCCCCCCCCCCSC(=S)c1c(C)[nH]n(-c2ccccc2)c1=O	no (0)

## Task Just curious, what result did O=[N+]([O-])c1ccc(/C=C/c2cc(-c3ccccc3)nc3ccc4ccccc4c23)cc1 get here?
## Result no (0)

## Task Just curious, what result did C=C(C)CC(C)(c1cc2ccccc2n1C)N1CCOCC1 (stereo not drawn) get here?
## Result no (0)

## Task Just curious, what result did CCCCCCCCCCCCC(Br)C(=O)SCCNC(=O)CCNC(=O)[C@@H](O)C(C)(C)COP(=O)(O)OP(=O)(O)OCC1OC(n2cnc3c(N)ncnc32)C(O)C1OP(=O)(O)O (stereo partly drawn) get here?
## Result no (0)

## Task Just curious, what result did C#Cc1cccc(N2C(=O)CCC2=O)c1 get here?
## Result no (0)
